Where these numbers come from: patent US5654451A

- System: S. aureus
- Experimental protocol: Antimicrobial assay (MIC, microtiter broth dilution)
- Assay type: cell-based
- Condition context: Table VI
Reported metric: MIC Staph (µg/mL)
Give bare numbers, in µg/mL.

Past entries and their recorded results:
[[record]]
compound = "N=C(N)NC(Cc1ccccc1)C(=O)NC1CCCCC1 (stereo not drawn) [Compound 77, N^α -Amidino-Phe-cyclohexylamide]"
endpoint_result = 128

[[record]]
compound = "CCCCCCCCN(CCCCCCCC)C(=O)C(Cc1ccc(F)cc1)NC(=N)N (stereo not drawn) [Compound 83, N^α -Amidino-p-F-Phe-diocytlamide]"
endpoint_result = 2

[[record]]
compound = "CCCCCCCCN(CCCCCCCC)C(=O)[C@H](Cc1ccccc1)NC(=O)CC(O)CNC(=N)N (some centres unmarked)"
endpoint_result = 1


Hi, could you look up MIC Staph for each item in my list?
1. CCCCCCCCN(CCCCCCCC)C(=O)C(Cc1ccc(N)cc1)NC(=N)N (stereo not drawn) [Compound 88, N^α -Amidino-p-amino-Phe-dioctylamide]
2. CCCCCCCCN(CCCCCCCC)C(=O)CCCCNC(=N)N [Compound 79, S-Guanidino Valeryl-dioctylamide]
3. CCCCCCCCN(CCCCCCCC)C(=O)[C@@H](Cc1ccccc1)NC(=N)N [Compound 70, N^α -Amidino-D Phe-dioctylamide]
4. CCCCCCCCN(CCCCCCCC)C(=O)CC(O)CNC(=N)N (centres unmarked)
5. N=C(N)NC(Cc1ccccc1)C(=O)NC12CC3CC(CC(C3)C1)C2 (stereo not drawn) [Compound 76, N^α -Amidino-Phe-adamantanamide]
6. NC(N)=NCCCC(N)C(=O)Nc1ccc(C=Cc2ccc(NC(=O)C(N)CCCN=C(N)N)cc2)cc1 (centres unmarked) [Compound 49, 4,4'-[Di-Arg] diaminostilbene]
7. CCCCCCCCN(CCCCCCCC)C(=O)C(Cc1cnc[nH]1)NC(=N)N (stereo not drawn) [Compound 78, N^α -Amidino-His-dioctylamide]
8. N=C(N)NC(CCC(=O)NC12CC3CC(CC(C3)C1)C2)C(=O)NC12CC3CC(CC(C3)C1)C2 (stereo not drawn) [Compound 86, N^α -Amidino-Glu-(α,γ) diadamantanamide]

Reply:
1. 1
2. 2
3. 2
4. 1
5. 16
6. 8
7. 1
8. 4

---

Please go through the items and note down their MIC Psuedo.
- System: P. aeruginosa
- Experimental protocol: Antimicrobial assay (MIC, microtiter broth dilution)
- Type: cell-based
- Condition context: Table VI

Past entries and their recorded results:
[[record]]
compound = "CCCCCCCCCCCCNC(=O)c1ccc(CNC(=N)N)cc1 [Compound 38, P-Guanidino-methyl-benzoyl-dodecylamide]"
reported_metric = "MIC Psuedo"
endpoint_result = "64 µg/mL"

[[record]]
compound = "CCCCCCCCN(CCCCCCCC)C(=O)CC(O)CNC(=N)N (centres unmarked)"
reported_metric = "MIC Psuedo"
endpoint_result = "16 µg/mL"

[[record]]
compound = "CCCCCCCCN(CCCCCCCC)C(=O)[C@@H](Cc1ccccc1)NC(=N)N [Compound 70, N^α -Amidino-D Phe-dioctylamide]"
reported_metric = "MIC Psuedo"
endpoint_result = "256 µg/mL"

[[record]]
compound = "CCCCCCCCN(CCCCCCCC)C(=O)CCNC(=O)CC(O)CNC(=N)N (centres unmarked)"
reported_metric = "MIC Psuedo"
endpoint_result = "16 µg/mL"

[[record]]
compound = "N=C(N)NC(Cc1ccccc1)C(=O)NC12CC3CC(CC(C3)C1)C2 (stereo not drawn) [Compound 76, N^α -Amidino-Phe-adamantanamide]"
reported_metric = "MIC Psuedo"
endpoint_result = "256 µg/mL"


Hi, could you look up MIC Psuedo for each item in my list?
1. CCCCCCCCN(CCCCCCCC)C(=O)C(Cc1c[nH]c2ccccc12)NC(=N)N (stereo not drawn) [Compound 66, N^α -Amidino-Trp-dioctylamide]
2. NC(N)=NCCCC(N)C(=O)Nc1ccc(C=Cc2ccc(NC(=O)C(N)CCCN=C(N)N)cc2)cc1 (centres unmarked) [Compound 49, 4,4'-[Di-Arg] diaminostilbene]
3. CCCCCCCCN(CCCCCCCC)C(=O)C(Cc1cnc[nH]1)NC(=N)N (stereo not drawn) [Compound 78, N^α -Amidino-His-dioctylamide]

Reply:
1. 256 µg/mL
2. 128 µg/mL
3. 8 µg/mL
